The measurements presented in this section are drawn from patent US20210206850A1.

Reported kon by item:
- tested system: T1, human CD47ECD mouse Fc protein (human, UniProt Q08722 19-139, limits assumed)
- T1 construct: extracellular domain; also called HuCD47ECD muFc; bivalent CD47ECD muFc protein; not shown: mouse Fc
- T1 sequence (Q08722 19-139 limits assumed): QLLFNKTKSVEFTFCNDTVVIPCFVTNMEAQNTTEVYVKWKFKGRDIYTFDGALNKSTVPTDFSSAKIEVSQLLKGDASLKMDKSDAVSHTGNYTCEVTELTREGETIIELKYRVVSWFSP
- test name: SPR (Biacore 3000); antibody captured on anti-human Fc chip, bivalent HuCD47ECD muFc injected
Please provide the amount together with its unit, number first.

// solved cases for kon follow
>  <binder>
AB6.12, a humanized version of anti-CD47 antibody 2A1 from Celgene (antibody, from another filing, V domains shown) VH: QMQLVQSGAEVKKTGSSVKVSCKASGFNIKDYYLHWVRQAPGQALEWMGWIDPDQGDTEYAQKFQDRVTITRDRSMSTAYMELSSLRSEDTAMYYCNAAYGSSSYPMDYWGQGTTVTVSS VL: NIQMTQSPSAMSASVGDRVTITCKASQDIHRYLSWFQQKPGKVPKHLIYRANRLVSGVPSRFSGSGSGTEFTLTISSLQPEDFATYYCLQYDEFPYTFGGGTKVEIKR

>  <reading>
469000 M⁻¹ s⁻¹

$$$$
>  <binder>
D96S1 mouse/human chimeric anti-human CD47 antibody (antibody, V domains shown, also called chimeric D96S1) VH: EVQLQQSGAELVKPGASVKLSCTASGFNIKDTYIHWVKQRPEQGLEWIGRIDPANGNIKSDPKFQGKATVTADTSSNTAYLQLSSLTSEDTAVYYCARSYGSSFASWGQGTLVTVSP VL: DIQMTQTTSSLSASLGDRVTISCRASQDISNHLNWYQQKPDGAVKLLIYYTSRLHSGVPSRFSGSGSGTDYSLTISNLEQEDIATYFCQQGSTFPYTFGGGTKLEIK

>  <reading>
257000 M⁻¹ s⁻¹

$$$$
>  <binder>
D125S3 mouse/human chimeric anti-human CD47 antibody (antibody, V domains shown, also called chimeric D125S3) VH: EVQLVESGGDLVKPGGSLNLSCAASGFTFSDYGMSWVRQTPDMRLEWVATISKYGTYTSYPDSVKGRFTISRSNAKNTLYLQMSSLKSADTALYYCARRFFGNYNYWYFDVWGAGTTVTVSS VL: DIVLTQSPASLAVSLGQRATFSCRASESVDEFGISYIHWYKKSPGQPPKLLIYRASTLESGISARFSGSGSGTDFTLTINPVETDDVATYYCQQSNQDPLTFGAGTKLELK

>  <reading>
223000 M⁻¹ s⁻¹

$$$$
>  <binder>
D28S1 mouse/human chimeric anti-human CD47 antibody (antibody, V domains shown, also called chimeric D28S1; D28S1VH/VL) VH: EVQLVESGGDLVKPGGSLKLSCAASGFTFTSYGMSWVRQTPDKRLEWVATINTGGSYTYYPDSVKGRFTISRDNAKNTLYLQMSSLKSEDTAMYYCARHTIKSLMDYWGQGTSVTVSS VL: ETTVTQSPASLSMAIGEKVTIRCITSTDIDDDMNWYQQKPGEPPKLLISEGNTLRPGVPSRFSSSGYGTDFVFIIENMFSEDVADYYCLQSDNLPYTFGSGTKLEIK

>  <reading>
299000 M⁻¹ s⁻¹

$$$$
>  <binder>
D41S2 mouse/human chimeric anti-human CD47 antibody (antibody, V domains shown, also called chimeric D41S2) VH: EVQLQQSVAELVRPGASVKLSCTPSGFNIKNTYIYWVRQRPEQGLEWIGRIDPANGNTKDAPKFQGKATMTADTSSNTAYLQLSSLTSEDTAIYYCARGYGSGFAYWGQGTLVTVSA VL: DIQMTQTTSSLSASLGDRVTISCRASQDISNHLNWYQQKPDGTVKLLIYYTSRLHSGVPSRFSGSGSGTDYSLTISNLEQEDIATYFCQQGSTLPFTFGSGTKLEIK

>  <reading>
147000 M⁻¹ s⁻¹

$$$$
>  <binder>
D36S4 mouse/human chimeric anti-human CD47 antibody (antibody, V domains shown, also called chimeric D36S4 antibody; D36S4 H/L) VH: EVKLEESGGGLVQPGGSMKLSCVASGFTFSRYWMNWVRQSPDKGLEWVAQIRLKSDNYETHYAESVKGRFTISRDDSKSSVYLQMNNLRAEDTGIYYCIEEGGYYVPFAYWGQGTLVTVSA VL: DIVVSQSPSSLAVSAGEKVTMSCKSSQSLFKSRTRKNYLAWYQQRPGQSPKLLIYWASIRESGVPDRFTGSGSGTEFTLTISSVQAEDLAVYYCKQSYYLLTFGAGTKLELK

>  <reading>
605000 M⁻¹ s⁻¹

$$$$

Please find the next binder below.
Incoming: What measured kon goes with D8S1 mouse/human chimeric anti-human CD47 antibody (antibody, V domains shown, also called chimeric D8S1) VH: EVQLQQSVAELVRPGASVKLSCTVSGFNIKNTYIYWVKQRPEQGLEWIGRIDPANGNTKDAPKFQGKATMTADTSSNTAYLQLSSLTSEDTAIYYCARGYGSGFAYWGQGTLVTVSA VL: DIQMTQTTSSLSASLGDRVTISCRASQDISNHLNWYQQKPDGIVKLLIYYTSRLHSGVPSRFSGSGSGTDYSLTISNLEQEDIATYFCQQGSTLPFTFGSGTKLEIK ?
Outgoing: 161000 M⁻¹ s⁻¹
